Target: T1, SNAP25 Peptide 3 (PEP3; only a fragment of it is a SNAP25 subsequence) (Homo sapiens, UniProt P60880 SEQ:1-33)
T1 chain: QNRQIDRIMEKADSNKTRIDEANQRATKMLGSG
Assay: ELONA
readout kind: binding signal (ELISA signal)
Kindly answer with a numeric value in ELISA signal, unit omitted.

Prompt: Any idea what binding signal was measured for PEP 3.24 (ssDNA, W indole, X amine, Y phenol modified dU [19,20,43,46]) DNA: TTTTTAAGCCCACCAGGGTTCGGGAGCCGAACGCCAGCACTGTCGTGCCATG ?
Response: 81

Prompt: Any idea what binding signal was measured for PEP 3.10 (ssDNA, W indole, X amine, Y phenol modified dU [19Y,34Y]) DNA: TTTTTAACACGACAGCACTGTGCACAGCACAGCTCAAGGGTGTGGGCCCATG ?
Response: 139

Prompt: Any idea what binding signal was measured for PEP 3.06 (ssDNA, W indole, X amine, Y phenol modified dU [19Y,24W,35Y,43X,46Y]) DNA: TTTTTAACACGACCGCACTGTGATAGGCGAACGGTGTGGAGGTCGTGCCATG ?
Response: 230

Prompt: Any idea what binding signal was measured for PEP 3.08 (ssDNA, W indole, X amine, Y phenol modified dU [15Y,19Y,24W,25X,27X,40W,43X,46Y]) DNA: TTTTTAACACGACGTCACTGTGGTTCTCGAACGCCGCGCTTGTCGTGCCATG ?
Response: 207

Prompt: Any idea what binding signal was measured for PEP 3.01 (ssDNA, W indole, X amine, Y phenol modified dU [19Y,24W,25X,27X,34Y,36W,38W,40W]) DNA: TTTTTAACACGACACCACTGTGGTTCTCACAGCTATGTGTTGTGGGCCCATG ?
Response: 503

Prompt: Any idea what binding signal was measured for PEP 3.07 (ssDNA, W indole, X amine, Y phenol modified dU [19Y]) DNA: TTTTTAAGCCCACGACACTGTGGCCAACACAGTACATGCATGTGGGCCCATG ?
Response: 219
